tgt: Potassium, ATP-sensitive ion channel
procedure.details: Radioligand binding, ATP-sensitive potassium channel
condition: 0.2 nM [3H]glibenclamide; nonspecific 0.1 μM glibenclamide; rat cerebral cortex; by NOVASCREEN; >10,000 = less than 30% displacement
observable: Ki

* O=C(O)C(=O)O.c1ccc(CCN2CCCCC2)cc1 [AC927, N-phenethylpiperidine oxalate] | > 10 µM
